molecular target: T1, human HER3-Fc (R&D Systems, 348-RB) (human, UniProt P21860 20-643); experiment: SPR, HER3-Fc captured by anti-Fc
T1 construct: Bought; also called hHER3-Fc; Fc-HER3; Fc part of the bought chimera not given, not described
Assign Kd to each entry below.
// note: answer is a bare numeric in nM

// query Kd value for entry 18B05 (VHH) VHH: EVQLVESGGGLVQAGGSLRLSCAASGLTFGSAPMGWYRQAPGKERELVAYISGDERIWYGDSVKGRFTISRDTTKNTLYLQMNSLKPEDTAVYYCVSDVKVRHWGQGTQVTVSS 0.29

Could you share which Kd value was measured for 34A04 (VHH) VHH: EVQLVESGGGLVQAGGSLRLSCAASGFTFDDYTIGWFRQAPGKEREEISCISNNDGSTYYTNSVKGRFTISSDNAKNTVYLQMNSLKPEDTAVYYCAASPHGCWYDLIPLQADFGSWGQGTQVTVSS ? 2.7

Recorded Kd of 17B05 (VHH, also called HER3MS17B05; HER3MS017B05) VHH: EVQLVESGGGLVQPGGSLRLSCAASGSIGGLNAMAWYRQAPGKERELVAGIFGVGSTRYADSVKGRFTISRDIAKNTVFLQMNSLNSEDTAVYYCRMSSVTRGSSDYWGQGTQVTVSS , please. 0.11
